// provenance: ChEMBL document CHEMBL1201862

Entries and their GI50 values follow.
Tested on: PC-3
assay_protocol: NCI tumour cell line growth inhibition, 48 h
Calls of active or inactive are those of the source. Cut-off read from the data, not from the text of the source: active = GI50 up to about 1.1 µM and inactive = higher. *1 amine or outer side, *2 acyl side, *3 side chain or, on linkers, in order; H or OH if unused. Where a SMILES comes first, the peptide text is derived from it. The star is where a group is joined. γGlu = O=C(O)[CH](CCC(=O)[*:2])N[*:1]; NHOH = ON*

Worked set:
INSERT INTO results (molecule, observation_type, measured) VALUES
  ('COc1c2c(cc3c1OCO3)[C@]13C=C[C@H](OC)C[C@H]1N(C2)CC3O (some centres undefined)', 'GI50', '> 100 µM (inactive)'),
  ('CC(=O)N(CCc1ccccc1)C(C#N)c1ccccc1 (centres undefined)', 'GI50', '> 100 µM (inactive)'),
  ('NC(CC(=O)OCc1ccccc1)C(=O)OCc1ccccc1 (centres undefined)', 'GI50', '> 100 µM (inactive)'),
  ('CC(=O)OCC1OC(OC2CC3C(C)(C)C(OC(C)=O)CC[C@]3(C)C3CCC45CC4(CCC5[C@@H](C)C[C@H](O)C(O)C(C)(C)O)[C@]23C)C(O)C(O)C1O (some centres undefined)', 'GI50', '> 10 µM (inactive)'),
  ('COc1cc(O)c2c(=O)c(O)c(-c3ccc(O)c(OC)c3)oc2c1 [RHAMNAZIN]', 'GI50', '11 µM (inactive)');

Query: Hello, please tell me recorded GI50 for this one: CC(C)(C)c1cc(C(C)(C)C)c2sc(=S)oc2c1O
Result: 4.29 µM (inactive)

Query: Output GI50 of NC(CCC(=O)NC(CCC(=O)NO)C(=O)NCC(=O)O)C(=O)O (centres undefined) (γGlu-Glu(NHOH)-Gly-OH; configuration not given here)
Result: > 100 µM (inactive)

Query: Report GI50, nothing else, for this molecule: O=S(=O)(O)c1ccc(Nc2ccnc3cc(Cl)ccc23)cc1
Result: > 100 µM (inactive)

Query: Assign GI50 to the following record: O=C(/C=C/c1ccc(O)cc1)c1ccc(O)cc1 [4,4'-DIHYDROXYCHALCONE]
Result: 28.7 µM (inactive)
